# Measured On: Protein-glutamine gamma-glutamyltransferase (Homo sapiens)
# Sequence (P21980 2-687 limits assumed): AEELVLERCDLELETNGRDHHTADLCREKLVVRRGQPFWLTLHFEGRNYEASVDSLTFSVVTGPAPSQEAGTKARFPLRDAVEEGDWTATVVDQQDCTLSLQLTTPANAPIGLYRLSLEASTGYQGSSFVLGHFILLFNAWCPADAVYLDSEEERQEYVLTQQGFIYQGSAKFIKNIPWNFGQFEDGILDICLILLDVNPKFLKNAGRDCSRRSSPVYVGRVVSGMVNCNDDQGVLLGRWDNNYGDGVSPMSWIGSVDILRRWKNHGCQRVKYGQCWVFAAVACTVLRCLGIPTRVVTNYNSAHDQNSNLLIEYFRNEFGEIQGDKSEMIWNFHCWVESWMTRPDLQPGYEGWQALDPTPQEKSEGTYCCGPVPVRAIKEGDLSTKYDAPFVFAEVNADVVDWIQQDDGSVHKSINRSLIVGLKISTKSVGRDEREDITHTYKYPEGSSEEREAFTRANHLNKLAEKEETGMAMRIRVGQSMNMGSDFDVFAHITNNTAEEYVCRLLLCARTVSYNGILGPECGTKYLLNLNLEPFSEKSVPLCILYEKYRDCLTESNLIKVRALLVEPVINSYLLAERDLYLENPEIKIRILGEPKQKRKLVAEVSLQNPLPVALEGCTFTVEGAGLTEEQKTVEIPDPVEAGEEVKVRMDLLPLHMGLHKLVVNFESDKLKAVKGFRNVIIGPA
# Experimental Protocol: Non-competitive inhibition of recombinant human TG2 V224 mutant deamidation activity using Cbz-Gln-Gly as substrate preincubated for 30 mins followed by substrate addition by GDH-coupled assay in presence of 5 mM Ca2+
Assign pKi to each entry below.
Conceptually, pKi converts a concentration in mol/L into minus its log10.

Kindly state the measured pKi obtained for "O=C1Nc2ccccc2/C1=C\C(=O)c1cccnc1" with Protein-glutamine gamma-glutamyltransferase (Homo sapiens).
4.07

Field: pKi (Protein-glutamine gamma-glutamyltransferase (Homo sapiens)). Entry: "O=C(/C=C1/C(=O)N(c2ccccc2)c2cccc(Cl)c21)c1cccnc1"
5.04

// lookup pKi | system=Protein-glutamine gamma-glutamyltransferase (Homo sapiens) | key= "O=C1Nc2cccc(Cl)c2/C1=C\C(=O)c1ccc(Cl)cc1"
4.33

What measured pKi is associated with "COc1ccccc1C(=O)/C=C1/C(=O)Nc2cccc(Cl)c21" on Protein-glutamine gamma-glutamyltransferase (Homo sapiens)?
5.48

The measurements presented in this section are drawn from ChEMBL document CHEMBL3627680.
